# Tested on: Candida albicans
# assay_notes: Antifungal activity against Candida albicans after 16 to 18 hr by serial dilution method
# Type: functional
Recorded MIC, one value per entry.
Please give a number only; it is taken to be in µg/mL.

Field: example entries. Status: answers known.
smiles_structure	readout_type	test_result
CS(=O)(=O)c1ccc(Cc2n[nH]c(=S)n2/N=C/c2c(F)cccc2Cl)cc1	MIC	3.12
CS(=O)(=O)c1ccc(Cc2n[nH]c(=S)n2/N=C/c2ccc(-c3ccccc3)cc2)cc1	MIC	6.25
CS(=O)(=O)c1ccc(Cc2n[nH]c(=S)n2/N=C/c2cccs2)cc1	MIC	3.12

The molecule listed as "CS(=O)(=O)c1ccc(Cc2n[nH]c(=S)n2/N=C/c2ccc(F)cc2)cc1" shows MIC equal to 3.12

"CS(=O)(=O)c1ccc(Cc2n[nH]c(=S)n2/N=C/c2ccccc2F)cc1" yielded MIC of 3.12

Entry "CSc1ccc(/C=N/n2c(Cc3ccc(S(C)(=O)=O)cc3)n[nH]c2=S)cc1" — recorded MIC = 3.12

###

# System: HeLa
# assay_notes: Cytotoxicity against Homo sapiens (human) HeLa cells assessed as cell death at 100 uM after 48 hr by MTT assay
# Format: functional
Assign class by Activity: not lower than 60% means True; lower than 60% means False.

Previously resolved entries follow.
smiles_structure	classification
CS(=O)(=O)c1ccc(Cc2n[nH]c(=S)n2/N=C/c2c(F)cccc2Cl)cc1	True
CSc1ccc(/C=N/n2c(Cc3ccc(S(C)(=O)=O)cc3)n[nH]c2=S)cc1	True
CS(=O)(=O)c1ccc(Cc2n[nH]c(=S)n2/N=C/c2ccc(F)cc2)cc1	False
CS(=O)(=O)c1ccc(Cc2n[nH]c(=S)n2/N=C/c2ccc(-c3ccccc3)cc2)cc1	True
COc1ccc2cc(/C=N/n3c(Cc4ccc(S(C)(=O)=O)cc4)n[nH]c3=S)ccc2c1	True

Q. Can "CS(=O)(=O)c1ccc(Cc2n[nH]c(=S)n2/N=C/c2cccnc2)cc1" be said to have Activity at or above 60%?
A. False

Q. Entry "CS(=O)(=O)c1ccc(Cc2n[nH]c(=S)n2/N=C/c2ccccc2F)cc1" : is its Activity no less than 60%?
A. False

Q. Does the reported Activity for "CS(=O)(=O)c1ccc(Cc2n[nH]c(=S)n2/N=C/c2ccccc2Cl)cc1" fall at or above the 60% mark?
A. True

Q. Does the reported Activity for "CS(=O)(=O)c1ccc(Cc2n[nH]c(=S)n2/N=C/c2ccc(Cl)cc2)cc1" fall at or above the 60% mark?
A. False

###

Overview of recorded MIC for various compounds
# Tested on: Escherichia coli
# assay_notes: Antibacterial activity against Escherichia coli after 16 to 18 hr by serial dilution method
# Format: functional
Please state the number and follow it with the unit.

// below: answered compounds
compound	experimental_target	MIC
CS(=O)(=O)c1ccc(Cc2n[nH]c(=S)n2/N=C/c2c(F)cccc2Cl)cc1	Escherichia coli	6.25 mg/L
CS(=O)(=O)c1ccc(Cc2n[nH]c(=S)n2/N=C/c2ccccc2Cl)cc1	Escherichia coli	6.25 mg/L
CS(=O)(=O)c1ccc(Cc2n[nH]c(=S)n2/N=C/c2ccc(F)cc2)cc1	Escherichia coli	6.25 mg/L
CSc1ccc(/C=N/n2c(Cc3ccc(S(C)(=O)=O)cc3)n[nH]c2=S)cc1	Escherichia coli	3.12 mg/L
CS(=O)(=O)c1ccc(Cc2n[nH]c(=S)n2/N=C/c2cccs2)cc1	Escherichia coli	3.12 mg/L

API: the following record is the query input.
compound "CS(=O)(=O)c1ccc(Cc2n[nH]c(=S)n2/N=C/c2cccnc2)cc1" , MIC observed: 6.25 mg/L
